# SYSTEM_NAME: Cytochrome P450 3A4 (Homo sapiens)
# Sequence (P08684 whole entry): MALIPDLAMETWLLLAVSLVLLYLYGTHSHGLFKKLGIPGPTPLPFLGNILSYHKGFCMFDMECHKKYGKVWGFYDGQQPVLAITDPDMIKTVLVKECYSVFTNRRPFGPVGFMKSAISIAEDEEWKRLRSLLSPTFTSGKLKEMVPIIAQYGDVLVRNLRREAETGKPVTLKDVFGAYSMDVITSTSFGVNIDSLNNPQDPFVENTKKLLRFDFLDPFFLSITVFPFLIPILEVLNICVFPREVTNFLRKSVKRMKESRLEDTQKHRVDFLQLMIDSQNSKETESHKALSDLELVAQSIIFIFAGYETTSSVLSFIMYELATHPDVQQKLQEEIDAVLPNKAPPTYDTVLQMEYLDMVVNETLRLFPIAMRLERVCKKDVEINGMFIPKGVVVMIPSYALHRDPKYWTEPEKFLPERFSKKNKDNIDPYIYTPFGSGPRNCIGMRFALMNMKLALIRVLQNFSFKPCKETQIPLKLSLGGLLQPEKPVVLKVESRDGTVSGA
# TEST_PROTOCOL: Inhibition of CYP3A4 in human liver microsomes using testosterone as substrate assessed as residual enzyme activity after 2 to 10 mins by LC-MS/MS analysis
# Type: ADME
RECORDED_METRIC: Ki (µM)
Give the number; µM is assumed, so skip it.

Read off the recorded Ki for C[C@H](c1nc2ncccc2c(=O)n1-c1ccc(O)cc1)N(Cc1cccnc1)C(=O)Cc1ccc(OC(F)(F)F)cc1 1.9

----------
# SYSTEM_NAME: CYP3A4 (Homo sapiens)
# Sequence (P08684 whole entry): as above
# TEST_PROTOCOL: Inhibition of CYP3A4 in human liver microsomes using testosterone as substrate assessed as residual enzyme activity after 2 to 10 mins by LC-MS/MS analysis
# Format: ADME
# CONDITION_NOTES: human, liver microsomes, probe testosterone
RECORDED_METRIC: kinact (s⁻¹)
Give the number; s⁻¹ is assumed, so skip it.

Read off the recorded kinact for C[C@H](c1nc2ncccc2c(=O)n1-c1ccc(O)cc1)N(Cc1cccnc1)C(=O)Cc1ccc(OC(F)(F)F)cc1 0.00165
